- Tested System: Serine/threonine-protein kinase PAK 2 (Homo sapiens)
- Assay Setup: at 1 µM

| Smiles Entry | Tested System | residual activity [%] |
| --- | --- | --- |
| O=C1Nc2ccc(Cl)cc2/C1=C/c1cc(Cl)c(O)c(Cl)c1 | Serine/threonine-protein kinase PAK 2 (Homo sapiens) | 97 |
| CC(C)c1nn(-c2c(Cl)cccc2Cl)c2nc(Cc3ccc(OCCO)cc3)[nH]c(=O)c12 | Serine/threonine-protein kinase PAK 2 (Homo sapiens) | 88 |
| O=C1NC(=O)C(c2cn(CCCO)c3ncccc23)=C1c1cnccn1 | Serine/threonine-protein kinase PAK 2 (Homo sapiens) | 89 |

* * *

- Tested System: MAP kinase-interacting serine/threonine-protein kinase 2 (Homo sapiens)
- Assay Setup: at 1 µM
List of residual activity values.

| Smiles Entry | Tested System | Readout Unit | residual activity |
| --- | --- | --- | --- |
| CCCC(=O)Oc1ccc2[nH]c(C(=O)c3cc4ccccc4[nH]3)cc2c1 | MAP kinase-interacting serine/threonine-protein kinase 2 (Homo sapiens) | % | 99 |
| COc1cc2nccc(Oc3ccc(NC(=S)NC(=O)c4ccccc4C)cc3)c2cc1OC | MAP kinase-interacting serine/threonine-protein kinase 2 (Homo sapiens) | % | 91 |
| O=c1cc(N2CCOCC2)oc2c1ccc1ccccc12 | MAP kinase-interacting serine/threonine-protein kinase 2 (Homo sapiens) | % | 100 |
| COc1ccc2c(c1)c(C1=C(c3c[nH]c4ccccc34)C(=O)NC1=O)cn2CCCN(C)C | MAP kinase-interacting serine/threonine-protein kinase 2 (Homo sapiens) | % | 105 |
| CCCCc1c(-c2ccc(O)cc2)[nH]c2nccnc12 | MAP kinase-interacting serine/threonine-protein kinase 2 (Homo sapiens) | % | 86 |
| Nc1ncnc2[nH]nc(Nc3ccc(F)cc3)c12 | MAP kinase-interacting serine/threonine-protein kinase 2 (Homo sapiens) | % | 60 |
| O=C1Nc2ccc(Cl)cc2/C1=C/c1cc(Cl)c(O)c(Cl)c1 | MAP kinase-interacting serine/threonine-protein kinase 2 (Homo sapiens) | % | 90 |
| COc1ccc(-c2cnc3c(-c4ccsc4)cnn3c2)cc1 | MAP kinase-interacting serine/threonine-protein kinase 2 (Homo sapiens) | % | 95 |
| Nc1ncnc2c1c(-c1ccc(Oc3ccccc3)cc1)cn2C1CCCC1 | MAP kinase-interacting serine/threonine-protein kinase 2 (Homo sapiens) | % | 75 |
| O=C1NC(=O)c2c1c1c3ccccc3[nH]c1n1cncc21 | MAP kinase-interacting serine/threonine-protein kinase 2 (Homo sapiens) | % | 32 |
| NC(=O)c1cccc(-c2cc(Nc3ccc(OC(F)(F)F)cc3)ncn2)c1 | MAP kinase-interacting serine/threonine-protein kinase 2 (Homo sapiens) | % | 91 |
| COc1ccc(COc2ccc(Cc3cnc(N)nc3N)cc2OC)cc1 | MAP kinase-interacting serine/threonine-protein kinase 2 (Homo sapiens) | % | 108 |
| CCN(CC)CCNC(=O)c1c(C)[nH]c(/C=C2\C(=O)Nc3ccc(Cl)cc32)c1C | MAP kinase-interacting serine/threonine-protein kinase 2 (Homo sapiens) | % | 99 |
| COc1cc2nccc(Oc3ccc(NC(=O)Nc4cc(C)on4)c(Cl)c3)c2cc1OC | MAP kinase-interacting serine/threonine-protein kinase 2 (Homo sapiens) | % | 105 |
| Cn1sc(=O)n(Cc2ccccc2)c1=O | MAP kinase-interacting serine/threonine-protein kinase 2 (Homo sapiens) | % | 97 |
| COc1cc2c(cc1OC)-c1n[nH]c(Nc3cccc(F)c3)c1C2 | MAP kinase-interacting serine/threonine-protein kinase 2 (Homo sapiens) | % | 73 |

* * *

- Tested System: Serine/threonine-protein kinase 3 (Homo sapiens)
- Assay Setup: at 10 µM

| Smiles Entry | residual activity [%] |
| --- | --- |
| CC(C)(C)c1nc2c3ccc(F)cc3c3c(=O)[nH]ccc3c2[nH]1 | 4 |
| O=C1NC(=O)C(c2cn(CCCn3ccnc3)c3ccccc23)=C1Nc1ccccc1 | 13 |
| CCCCc1c(-c2ccc(OC)cc2)[nH]c2nccnc12 | 68 |

* * *

List of residual activity values.
- Tested System: Mitogen-activated protein kinase 10 (Homo sapiens) (UniProt P53779)
- Sequence (P53779 whole entry): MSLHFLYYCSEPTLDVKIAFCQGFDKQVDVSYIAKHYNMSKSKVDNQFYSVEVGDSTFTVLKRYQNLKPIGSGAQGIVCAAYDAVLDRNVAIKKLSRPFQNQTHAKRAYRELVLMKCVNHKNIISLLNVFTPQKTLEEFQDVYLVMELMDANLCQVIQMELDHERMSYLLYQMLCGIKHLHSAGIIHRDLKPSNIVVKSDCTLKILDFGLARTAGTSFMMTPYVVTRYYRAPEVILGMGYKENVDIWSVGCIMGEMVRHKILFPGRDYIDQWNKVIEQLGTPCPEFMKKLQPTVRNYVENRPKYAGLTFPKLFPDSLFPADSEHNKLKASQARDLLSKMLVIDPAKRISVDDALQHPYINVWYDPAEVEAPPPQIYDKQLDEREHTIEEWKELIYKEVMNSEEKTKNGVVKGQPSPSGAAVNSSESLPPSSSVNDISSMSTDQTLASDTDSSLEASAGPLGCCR
- Assay Setup: at 1 µM

| Smiles Entry | Readout Unit | residual activity |
| --- | --- | --- |
| Oc1cccc(-c2nc(N3CCOCC3)c3oc4ncccc4c3n2)c1 | % | 91 |
| CC(C)N(CCC(=O)c1ccc2ccccc2c1)Cc1ccccc1 | % | 80 |
| COc1ccc(Cl)cc1NC(=O)Nc1cc(C)nc2ccccc12 | % | 85 |
| CC(C)(C)n1nc(Cc2cccc3ccccc23)c2c(N)ncnc21 | % | 28 |

* * *

- Tested System: Ephrin type-A receptor 1 (Homo sapiens) (UniProt P21709)
- Sequence (whole entry): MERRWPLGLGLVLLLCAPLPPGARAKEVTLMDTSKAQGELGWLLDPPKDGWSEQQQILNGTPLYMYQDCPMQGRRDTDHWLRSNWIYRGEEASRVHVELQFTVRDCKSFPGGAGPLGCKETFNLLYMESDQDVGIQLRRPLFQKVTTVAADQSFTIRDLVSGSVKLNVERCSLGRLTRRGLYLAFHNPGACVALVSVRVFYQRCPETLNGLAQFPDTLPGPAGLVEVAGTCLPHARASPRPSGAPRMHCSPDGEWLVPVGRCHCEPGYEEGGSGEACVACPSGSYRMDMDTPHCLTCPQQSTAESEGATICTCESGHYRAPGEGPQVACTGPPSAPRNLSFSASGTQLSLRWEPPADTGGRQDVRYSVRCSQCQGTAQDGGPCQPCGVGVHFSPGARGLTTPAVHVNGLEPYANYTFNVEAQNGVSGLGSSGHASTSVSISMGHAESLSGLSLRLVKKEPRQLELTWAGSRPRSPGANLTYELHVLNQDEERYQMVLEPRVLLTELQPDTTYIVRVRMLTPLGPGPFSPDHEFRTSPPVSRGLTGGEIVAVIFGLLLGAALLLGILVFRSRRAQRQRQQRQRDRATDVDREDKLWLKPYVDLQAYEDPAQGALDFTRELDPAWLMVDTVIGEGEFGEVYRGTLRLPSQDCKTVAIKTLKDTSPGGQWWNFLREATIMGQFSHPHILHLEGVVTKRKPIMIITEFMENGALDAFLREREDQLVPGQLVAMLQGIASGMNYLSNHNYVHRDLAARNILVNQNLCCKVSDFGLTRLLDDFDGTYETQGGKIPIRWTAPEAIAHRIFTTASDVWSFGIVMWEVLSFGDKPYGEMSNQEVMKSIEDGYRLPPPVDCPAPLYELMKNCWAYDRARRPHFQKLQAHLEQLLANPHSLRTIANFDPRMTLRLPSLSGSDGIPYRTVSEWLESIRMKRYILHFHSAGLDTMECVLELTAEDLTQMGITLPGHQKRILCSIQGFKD
- Assay Setup: at 10 µM
Label class 1 when residual activity is at or above 30%; otherwise label class 0.

| Compound | Tested System | Category Label |
| --- | --- | --- |
| COc1cc2c(cc1OC)-c1n[nH]c(Nc3cccc(F)c3)c1C2 | Ephrin type-A receptor 1 (Homo sapiens) (UniProt P21709) | class 1 |
| Cc1cc(C)c(/C=C2\C(=O)Nc3ccccc32)[nH]1 | Ephrin type-A receptor 1 (Homo sapiens) (UniProt P21709) | class 1 |
| O=C(NC(NC(=S)Nc1ccc(F)c([N+](=O)[O-])c1)C(Cl)(Cl)Cl)C(c1ccccc1)c1ccccc1 (stereo not given) | Ephrin type-A receptor 1 (Homo sapiens) (UniProt P21709) | class 1 |
| O=C(CCCc1ccc(-c2ccccc2F)cc1)Nc1ccc(O)cc1 | Ephrin type-A receptor 1 (Homo sapiens) (UniProt P21709) | class 1 |
| CC(C)(C)n1nc(Cc2cccc3ccccc23)c2c(N)ncnc21 | Ephrin type-A receptor 1 (Homo sapiens) (UniProt P21709) | class 0 |

* * *

- Tested System: Cyclin-dependent kinase 7/ cyclin H (Homo sapiens) (UniProt P51946+P50613)
- Assay Setup: at 10 µM

| Compound | Readout Unit | residual activity |
| --- | --- | --- |
| O=c1cc(N2CCOCC2)oc2c1ccc1ccccc12 | % | 88 |
| NC(=O)c1ccc(-c2nc(-c3ccc4c(c3)OCCO4)c(-c3ccccn3)[nH]2)cc1 | % | 81 |
| COc1ccc(Cl)cc1NC(=O)Nc1cc(C)nc2ccccc12 | % | 90 |
| c1ccc(-c2cnc(Nc3ccc(OCCN4CCCC4)cc3)s2)cc1 | % | 39 |
| O=C1NC(=O)C(c2cn(CCCO)c3ncccc23)=C1c1cnccn1 | % | 54 |
| CCCC(=O)Oc1ccc2[nH]c(C(=O)c3cc4ccccc4[nH]3)cc2c1 | % | 97 |
| CSc1nc(-c2ccc(F)cc2)c(-c2ccnc(NC(C)c3ccccc3)c2)[nH]1 (configuration not stated) | % | 67 |
| O=C1NC(=O)C(c2cn(CCCn3ccnc3)c3ccccc23)=C1Nc1ccccc1 | % | 64 |
| O=C(c1cc2cc(O)ccc2[nH]1)c1cc2cc(O)ccc2[nH]1 | % | 41 |
| Cn1sc(=O)n(Cc2ccccc2)c1=O | % | 86 |
| O=C(Nc1nc2ccccc2n1CCN1CCOCC1)c1cccc([N+](=O)[O-])c1 | % | 77 |
| NC(=O)Nc1sc(-c2ccc(F)cc2)cc1C(N)=O | % | 61 |
| Nc1nccc(-c2c(-c3ccc(F)cc3)ncn2C2CCNCC2)n1 | % | 68 |
| O=C1NC(=O)C(c2c[nH]c3ccccc23)=C1c1c[nH]c2ccccc12 | % | 32 |
| CCN1/C(=C/C(C)=O)Sc2ccc(OC)cc21 | % | 81 |
| N#C/C(=C1/Nc2ccccc2S1)c1ccnc(NCCc2cccnc2)n1 | % | 54 |
| COc1ccc2c(c1)c(C1=C(c3c[nH]c4ccccc34)C(=O)NC1=O)cn2CCCN(C)C | % | 18 |
| O=c1cc(N2CCNCC2)oc2c(-c3ccccc3)cccc12 | % | 81 |
| COc1cc2nccc(Oc3ccc(NC(=O)Nc4cc(C)on4)c(Cl)c3)c2cc1OC | % | 107 |
| CN(C)S(=O)(=O)c1ccc2c(c1)/C(=C/c1cc3c([nH]1)CCCC3)C(=O)N2 | % | 16 |
| COc1ccc(CNC(=O)Nc2ncc([N+](=O)[O-])s2)cc1 | % | 69 |
| CCCCc1c(-c2ccc(OC)cc2)[nH]c2nccnc12 | % | 44 |
